target: Dual specificity protein kinase CLK4 (Homo sapiens) (UniProt Q9HAZ1); test: qHTS Assay for Inhibitors of CDC-like Kinase 4 (ADP-Glo Assay) (AID 1771); details: recombinant CLK4, ADP-Glo luminescence; series mostly up to 80 µM; also: nearly all actives have a fitted effect of over 70% in size
Sequence (Q9HAZ1 whole entry, looked up): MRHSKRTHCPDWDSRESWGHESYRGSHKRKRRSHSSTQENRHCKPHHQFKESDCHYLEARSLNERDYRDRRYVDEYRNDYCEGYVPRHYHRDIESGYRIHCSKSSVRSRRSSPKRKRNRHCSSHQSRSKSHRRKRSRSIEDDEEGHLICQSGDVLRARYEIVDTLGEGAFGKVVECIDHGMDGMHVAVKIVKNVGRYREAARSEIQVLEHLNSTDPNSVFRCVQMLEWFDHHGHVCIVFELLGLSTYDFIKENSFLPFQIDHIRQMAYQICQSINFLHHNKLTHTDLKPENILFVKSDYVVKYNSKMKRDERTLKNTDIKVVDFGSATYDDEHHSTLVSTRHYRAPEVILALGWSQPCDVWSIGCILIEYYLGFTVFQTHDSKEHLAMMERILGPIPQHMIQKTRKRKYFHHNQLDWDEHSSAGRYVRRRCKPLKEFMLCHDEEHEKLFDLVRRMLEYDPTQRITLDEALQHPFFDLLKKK
Records with an inconclusive call do not appear. Active and inactive are the calls of the source. Calls follow the shape of the dose curve; as a rule, active = well fitted inhibition curve with a large enough effect; inconclusive = small, poorly fitted or top-dose-only effect; inactive = flat fitted curve, though single readings scatter.
In this exercise, the only acceptable responses are active, inactive

Observe how each entry below is paired with its result.
CN(C)Cc1ccccc1-c1nc(NCc2cccs2)c2ccccc2n1    inactive
COCCn1c(=O)c(-c2cn(C)c3ccccc23)nc2cnc(N3CCOCC3)nc21    inactive

### Prompt # fetch the recorded call for CN(Cc1ccco1)c1ncnc2ccc(-c3ccccc3Cl)cc12 here
### Response active

### Prompt How did this test come out for CN(C)c1ncc2nc(-c3cc(F)cc(F)c3)c(=O)n(C3CC3)c2n1 ?
### Response inactive

### Prompt Hello, I am checking results. What call was entered for Cc1noc(C)c1-c1nccc(N2CCOCC2)n1 ?
### Response active

### Prompt Query: recorded result category for Cn1cc(-c2nc3cnc(Oc4ccccc4)nc3n(C)c2=O)c2ccccc21 in this test
### Response inactive

### Prompt Query: recorded result category for Cc1cccc(CNc2nc(-c3ccc4c(c3)OCO4)nc3ccccc23)c1 in this test
### Response inactive

### Prompt Which result was noted for this compound in the test: N#CCCn1c(=O)c(-c2ccc(Cl)cc2)nc2cnc(Oc3ccccc3)nc21
### Response inactive

### Prompt Hi, do you know how COc1cccc(-c2cc(N(C)Cc3ccco3)ncn2)c1 came out in this test?
### Response active

### Prompt Test call for this compound, please: O=c1c(-c2ccc(F)cc2)nc2cnc(Nc3ccccc3)nc2n1C[C@H]1CCCO1
### Response inactive

### Prompt Returns: the outcome recorded for COc1cccc(Cn2c(=O)c(C)nc3cnc(OC)nc32)c1 in this assay.
### Response inactive

### Prompt What did the test return for COc1ccc(-c2nc3cnc(Nc4ccccc4)nc3n(C[C@H]3CCCO3)c2=O)cc1 ?
### Response inactive

### Prompt I would be grateful if you could indicate the recorded call for COCCn1c(=O)cnc2cnc(Nc3cccc(OC)c3)nc21 .
### Response active

### Prompt Just curious, what result did CCNc1ncc2nc(-c3ccc(Cl)cc3)c(=O)n(CCC#N)c2n1 get here?
### Response inactive

----------
Each entry below carries its reported activity change, negative = inhibition.
experiment: qHTS Assay for Lipid Storage Modulators (AID 1519); conditions: Drosophila S3 cells, BODIPY lipid droplet/cell ratio, laser cytometry; at 57.5 µM (top of the series); cells loaded with oleic acid; also: % is scaled to controls: 0 for no effect and ±100 for the full control effect
Inconclusive results are not listed.
Express it in %; write the number only.

Answered examples (4):
COc1ccc(-c2nc3cnc(N4CCNCC4)nc3n(-c3ccc(OC)cc3)c2=O)cc1    1.3
COCC(=O)N1CCC2(CC1)CCN(C(c1ccccc1)c1ccccc1)CC2    1.77
CS(=O)(=O)N1CCC2(CCN(c3ccccc3)CC2)CC1    5.49
O=C(c1cnccn1)N1CCC[C@@]2(CCN(c3ccncc3)C2)C1    3.16

### Prompt I am curious: what activity change, negative = inhibition value has been reported for Cc1noc(C)c1C(=O)N1CCC[C@@]2(CCN(Cc3ccccc3)C2)C1 ?
### Response 2.65

----------
assay: SW1088 Cancer Cell Toxicity qHTS against the NCATS CANVASS Library (AID 1347350); details: SW1088 viability, CellTiter-Glo luminescence, 72 h; series mostly up to 38.3 µM; also: nearly all actives have a fitted effect of over 75% in size
Inconclusive results are not listed. Calls of active or inactive are those of the source. Calls come from the whole dose curve; as a rule, active = well fitted cell-killing curve with a large enough effect; inconclusive = small, poorly fitted or top-dose-only effect; inactive = flat fitted curve, though single readings scatter.
Outcomes you can answer with include only these: True (active), False (inactive)

Some solved cases for reference:
C[n+]1cc2cc(C(N)=O)[nH]c3c(=N)c(Cl)c(N)c1c23    False
CC[C@@H](c1cc(OC)c(OC)cc1OC)[C@H](C)[C@@H](/C(C)=C/c1cc(OC)c(OC)cc1OC)c1cc(OC)c(OC)cc1OC    True
C/C(=C\[C@H](C)C(=O)C[C@H](O)CC1CC(=O)NC(=O)C1)[C@@H]1OC(=O)CCCC/C=C/[C@@H](O)C[C@@H]1C    False

### Prompt Field: outcome | Entry: CN1CC[C@]23c4ccccc4N[C@H]1[C@]21CCN(C)[C@H]3Nc2ccccc21
### Response False

### Prompt What did the test return for COc1ccc([C@@H]2c3cc4c(cc3C(=O)[C@H](C)C2C)OCO4)cc1OC (some centres undefined) ?
### Response False

### Prompt Hello, I am checking results. What call was entered for C/C=C(/CO)C(=O)O[C@@H]1[C@H](O)[C@@H](C(=O)OC)O[C@@H]2C[C@H]3OC(n4cnc5c(N)ncnc54)[C@H](OC)[C@H]3O[C@@]12O (some centres undefined) ?
### Response False

### Prompt What did the test return for CC(C)=CCC[C@]1(C)[C@H]2CC(=O)[C@@]3(CO3)[C@@H]1C2 ?
### Response False
